// provenance: the supplement of paper PMC10065799

target: c-Src SH2; assay: SH2 binding enrichment of the phosphorylated peptide, bacterial display (enrichment ratio); higher = better substrate or ligand; peptides without Tyr show the background;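 note: peptide library displayed on the E. coli surface as eCPX fusions, selected cells deep-sequenced, score is each peptide's frequency after selection divided by its frequency in the input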
Quantity: SH2 binding enrichment
Answers are plain numbers.

Sequence input	SH2 binding enrichment
GSSSSCGQHGS [HRNR_Y517_Y517C]	0.553
RREWYYEVIIA [BACE1_Y260_V265A]	0.415
GVPLGYPIKAP [ELN_Y206]	0.573
FTFDPYSEEDP [IL2RB_Y387_YF]	0.651
LFIGQYSGKKE [L1CAM_Y1229_S1224L]	0.843
FEREQYADRAR [RBM4_Y355_YF]	0.536

Each of the following entries comes with a recorded value; kindly state SH2 binding enrichment for each.
1. RGKDSYETSKL [SPP1_Y225_Q229K]
2. PKGIGYGQGAG [CSRP3_Y73]
3. NKVFTYIFIME [SCN4A_Y1074_D1069N]
4. TVFSDYLHPQY [CCPG1_Y569]
5. GHLFAYDWIRI [BEST1_Y227_S231R_YF]

Solution:
1. 0.388
2. 0.489
3. 0.342
4. 0.541
5. 1.56

----------
target: EPHB2 (UniProt P29323); test: phosphorylation enrichment, bacterial display (enrichment ratio); higher = better substrate or ligand; peptides without Tyr show the background
Sequence (P29323 whole entry, looked up): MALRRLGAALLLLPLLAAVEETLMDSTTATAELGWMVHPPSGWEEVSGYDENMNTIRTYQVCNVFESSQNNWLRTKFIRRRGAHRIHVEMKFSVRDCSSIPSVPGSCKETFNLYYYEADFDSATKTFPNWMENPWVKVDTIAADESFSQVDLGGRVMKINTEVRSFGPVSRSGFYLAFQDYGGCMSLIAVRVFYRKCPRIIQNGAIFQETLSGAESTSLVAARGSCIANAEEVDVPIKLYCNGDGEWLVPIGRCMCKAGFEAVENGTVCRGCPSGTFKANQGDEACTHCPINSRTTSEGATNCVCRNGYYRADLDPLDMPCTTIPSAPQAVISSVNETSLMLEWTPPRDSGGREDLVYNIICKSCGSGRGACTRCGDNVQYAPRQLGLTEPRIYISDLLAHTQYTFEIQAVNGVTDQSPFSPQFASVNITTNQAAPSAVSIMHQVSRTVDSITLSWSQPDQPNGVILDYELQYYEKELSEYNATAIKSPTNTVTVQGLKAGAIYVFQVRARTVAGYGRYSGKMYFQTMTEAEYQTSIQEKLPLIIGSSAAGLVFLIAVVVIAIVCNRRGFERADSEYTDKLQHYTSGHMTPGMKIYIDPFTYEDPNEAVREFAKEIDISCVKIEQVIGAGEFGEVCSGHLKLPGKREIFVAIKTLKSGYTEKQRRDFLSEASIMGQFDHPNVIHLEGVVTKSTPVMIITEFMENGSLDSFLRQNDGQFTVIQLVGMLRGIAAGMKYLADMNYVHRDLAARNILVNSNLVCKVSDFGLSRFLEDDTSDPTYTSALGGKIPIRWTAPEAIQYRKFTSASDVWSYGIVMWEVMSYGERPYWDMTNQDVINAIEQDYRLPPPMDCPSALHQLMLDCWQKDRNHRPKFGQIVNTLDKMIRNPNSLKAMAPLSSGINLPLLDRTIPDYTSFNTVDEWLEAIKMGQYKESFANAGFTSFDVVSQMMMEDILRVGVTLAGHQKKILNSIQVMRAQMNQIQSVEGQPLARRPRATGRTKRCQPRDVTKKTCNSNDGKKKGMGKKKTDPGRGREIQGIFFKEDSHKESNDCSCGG
So basically: phosphorylation enrichment at 0.6 or higher? That is Met. Lower than 0.6? That is Not met.

Some solved entries appear below for comparison.
Sequence input	Assigned label
SSSAIYDNPDL [DCP1B_Y191_N195D]	Met
SDVCMYRKNTY [SYNE2_Y570_I574T]	Not met
MSRNLYSGDCF [DDR2_Y736_Y740C_YF]	Met
SKNYTYIWWLN [PSG4_Y271]	Not met
LFEDRYLLGPS [ASS1_Y87_T91P_YF]	Met
PSQRRYVFFFS [PTEN_Y174_YF]	Met
AAVDTVCRHNY [HLA-DRB1_Y107_Y107V]	Not met
TLLERYGMIEI [ACSF3_Y355_T358I]	Not met
LHSEAYLKYIE [PBRM1_Y1610]	Met
QEGPEYWDQET [HLA-A_Y83]	Not met

Exercise: Decide: phosphorylation enrichment of CGTPDNIAPEI [PRKCG_Y521_Y521N] >= 0.6?
Solution: Met

Exercise: Decide: phosphorylation enrichment of GKSFIYAAFHA [KCNT1_Y563_T562I] >= 0.6?
Solution: Not met

Exercise: Decide: phosphorylation enrichment of IVRSLYEDLED [VHL_Y185] >= 0.6?
Solution: Not met

Exercise: Decide: phosphorylation enrichment of EKNANYKEGTF [CLRN1_Y171_I168N_YF] >= 0.6?
Solution: Not met

Exercise: Decide: phosphorylation enrichment of PVGVLYKVKVY [PTS_Y128] >= 0.6?
Solution: Met

Exercise: Decide: phosphorylation enrichment of LTFDEYRNISQ [ANXA3_Y216] >= 0.6?
Solution: Met

Exercise: Decide: phosphorylation enrichment of KLVQLYGVCTK [BTK_Y461] >= 0.6?
Solution: Met

Exercise: Decide: phosphorylation enrichment of AHADEYGAEAL [HBA1_Y25_G23D] >= 0.6?
Solution: Not met

Exercise: Decide: phosphorylation enrichment of FDGKDYIALKE [HLA-A_Y147_N151K_YF] >= 0.6?
Solution: Not met

Exercise: Decide: phosphorylation enrichment of VPLLEYFWDIF [CDAN1_Y712_R714W_YF] >= 0.6?
Solution: Not met

Exercise: Decide: phosphorylation enrichment of LFIGQYSGKKE [L1CAM_Y1229_S1224L] >= 0.6?
Solution: Met

Exercise: Decide: phosphorylation enrichment of LERYIYNRQEF [HLA-DPB1_Y59_E62Q] >= 0.6?
Solution: Met

Exercise: Decide: phosphorylation enrichment of EDSEYYKAFEE [CASQ2_Y179] >= 0.6?
Solution: Not met

Exercise: Decide: phosphorylation enrichment of HFVDEYDPTIE [KRAS_Y32] >= 0.6?
Solution: Met
